- System: c-Myc
- experimental.details: c-Myc immunofluorescence assay
- Assay type: cell-based, human
- assay.context: A549 cells, 24 hours treatment, anti-c-Myc immunofluorescence
property.label: Myc Efficacy (−LogEC50)

> print(dat)
                                    compound  target.under.test     value.reported
 1  CCN(CC)CCCNC(=O)c1ccc2c(c1)sc1nc(-c3cccc(N4CCOCC4)c3)cn12              c-Myc  ++ (++ ≥5 and <6)
 2  O=C(N[C@H]1CCOC1)c1ccc2c(c1)sc1nc(-c3ccc(C4CCCN4)cc3F)cn12 (some centres unmarked) [524S]              c-Myc  ++ (++ ≥5 and <6)
 3  CNC(=O)c1ccc(-c2cn3c(n2)sc2cc(C(=O)N[C@@H](CO)CC(C)C)ccc23)cc1              c-Myc           − (− ≤3)
 4  O=C(NC1CCOCC1)c1ccc2c(c1)sc1nc(-c3ccc(C4COCCN4)cc3F)cn12 (centres unmarked)              c-Myc       +++ (+++ ≥6)
 5  CNC(=O)c1ccc(-c2cn3c(n2)sc2cc(C(=O)N[C@@H](C)COC)ccc23)cc1              c-Myc    + (+ >3 and <5)
 6  CCN(CC)CCCNC(=O)c1ccc2c(c1)sc1nc(-c3ccc(CNC)cc3)cn12              c-Myc       +++ (+++ ≥6)
 7  CN1CCC(NC(=O)c2ccc3c(c2)sc2nc(-c4ccc(C5CCNCC5O)cc4F)cn23)CC1 (centres unmarked)              c-Myc       +++ (+++ ≥6)
 8  CNC(=O)c1ccc(-c2cn3c(n2)sc2cc(C(=O)NCCOC(C)C)ccc23)cc1              c-Myc           − (− ≤3)
 9  CCCSCCCNC(=O)c1ccc2c(c1)sc1nc(-c3ccc(F)cc3)cn12              c-Myc    + (+ >3 and <5)
10  O=C(NCCCN1CCCCC1)c1ccc2c(c1)sc1nc(-c3ccc([C@H]4CCCN4)cc3F)cn12              c-Myc       +++ (+++ ≥6)
11  CNC(=O)c1ccc(-c2cn3c(n2)sc2cc(C(=O)NCC(C)(C)N4CCOCC4)ccc23)cc1              c-Myc           − (− ≤3)
